// values below are reported switch fluorescence ratio
# Test system: ATP;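 also: ATP exposure 15 min at 22 °C before imaging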
# METHOD DESCRIPTION: switch fluorescence ratio, 500 uM ATP over buffer (Cy3 cluster intensity, sum of 5 cycles each) (fold (ratio)); higher = stronger signal-on switching upon ATP binding; sequences stand for … in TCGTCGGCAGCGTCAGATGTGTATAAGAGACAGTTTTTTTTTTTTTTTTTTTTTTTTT…TC
# EXPERIMENTAL PARAMETERS: aptamer strand: ATP DNA aptamer (quencher-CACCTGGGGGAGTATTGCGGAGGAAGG + anchor), 100 nM annealed; ATP concentration: 500 uM
READOUT LABEL: switch fluorescence ratio

>  <RESIDUES>
CATTGGTAGG

>  <READOUT LABEL>
switch fluorescence ratio

>  <REPORTED MEASUREMENT>
0.987

$$$$
>  <RESIDUES>
TAGTTAATCG

>  <READOUT LABEL>
switch fluorescence ratio

>  <REPORTED MEASUREMENT>
0.968

$$$$
>  <RESIDUES>
TTGAGACTGT

>  <READOUT LABEL>
switch fluorescence ratio

>  <REPORTED MEASUREMENT>
0.971

$$$$
>  <RESIDUES>
AGCAATCGTT

>  <READOUT LABEL>
switch fluorescence ratio

>  <REPORTED MEASUREMENT>
1.54

$$$$
>  <RESIDUES>
AAATTTAGTT

>  <READOUT LABEL>
switch fluorescence ratio

>  <REPORTED MEASUREMENT>
1.02

$$$$
>  <RESIDUES>
AAGTTTGTAG

>  <READOUT LABEL>
switch fluorescence ratio

>  <REPORTED MEASUREMENT>
1

$$$$
>  <RESIDUES>
CACCTTACGT

>  <READOUT LABEL>
switch fluorescence ratio

>  <REPORTED MEASUREMENT>
1.45

$$$$
>  <RESIDUES>
GGGAAAGCG

>  <READOUT LABEL>
switch fluorescence ratio

>  <REPORTED MEASUREMENT>
1.04

$$$$
>  <RESIDUES>
ACCTGCAATG

>  <READOUT LABEL>
switch fluorescence ratio

>  <REPORTED MEASUREMENT>
2.43

$$$$
>  <RESIDUES>
GTTGCATCGA

>  <READOUT LABEL>
switch fluorescence ratio

>  <REPORTED MEASUREMENT>
1.02

$$$$
>  <RESIDUES>
CAGTGTGGTT

>  <READOUT LABEL>
switch fluorescence ratio

>  <REPORTED MEASUREMENT>
1.11

$$$$
>  <RESIDUES>
TTGCCTGGGG

>  <READOUT LABEL>
switch fluorescence ratio

>  <REPORTED MEASUREMENT>
1.02

$$$$
>  <RESIDUES>
CGTAAAAGAT

>  <READOUT LABEL>
switch fluorescence ratio

>  <REPORTED MEASUREMENT>
1.04

$$$$
>  <RESIDUES>
AACACGGAAC

>  <READOUT LABEL>
switch fluorescence ratio

>  <REPORTED MEASUREMENT>
1.29

$$$$

###

# System: ATP;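 also: ATP exposure 15 min at 22 °C before imaging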
# METHOD DESCRIPTION: switch fluorescence ratio, 500 uM ATP over buffer (Cy3 cluster intensity, sum of 5 cycles each) (fold (ratio)); higher = stronger signal-on switching upon ATP binding; sequences stand for … in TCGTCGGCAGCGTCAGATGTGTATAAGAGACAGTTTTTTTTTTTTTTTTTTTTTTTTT…TC
# EXPERIMENTAL PARAMETERS: aptamer strand: ATP DNA aptamer (quencher-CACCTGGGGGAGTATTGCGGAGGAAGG + anchor), 100 nM annealed; ATP concentration: 500 uM
// values below are reported switch fluorescence ratio
READOUT LABEL: switch fluorescence ratio

>  <RESIDUES>
GGGGTTGTAA

>  <READOUT LABEL>
switch fluorescence ratio

>  <REPORTED MEASUREMENT>
0.994

$$$$
>  <RESIDUES>
GGGAGAGGGT

>  <READOUT LABEL>
switch fluorescence ratio

>  <REPORTED MEASUREMENT>
1.02

$$$$
>  <RESIDUES>
TGGCGGTCGG

>  <READOUT LABEL>
switch fluorescence ratio

>  <REPORTED MEASUREMENT>
1

$$$$
>  <RESIDUES>
TGATAGTCCT

>  <READOUT LABEL>
switch fluorescence ratio

>  <REPORTED MEASUREMENT>
1.03

$$$$
>  <RESIDUES>
GAGAAGGATT

>  <READOUT LABEL>
switch fluorescence ratio

>  <REPORTED MEASUREMENT>
0.99

$$$$
>  <RESIDUES>
CACACGTTTT

>  <READOUT LABEL>
switch fluorescence ratio

>  <REPORTED MEASUREMENT>
1.02

$$$$
>  <RESIDUES>
ATTCGTTTTG

>  <READOUT LABEL>
switch fluorescence ratio

>  <REPORTED MEASUREMENT>
1.03

$$$$
>  <RESIDUES>
TAAGGGGGAG

>  <READOUT LABEL>
switch fluorescence ratio

>  <REPORTED MEASUREMENT>
0.999

$$$$
>  <RESIDUES>
TGTTTGTTCT

>  <READOUT LABEL>
switch fluorescence ratio

>  <REPORTED MEASUREMENT>
0.976

$$$$
>  <RESIDUES>
GTAATATTAT

>  <READOUT LABEL>
switch fluorescence ratio

>  <REPORTED MEASUREMENT>
0.974

$$$$
>  <RESIDUES>
GAATATTACC

>  <READOUT LABEL>
switch fluorescence ratio

>  <REPORTED MEASUREMENT>
1.06

$$$$
>  <RESIDUES>
TCGTGGGTGC

>  <READOUT LABEL>
switch fluorescence ratio

>  <REPORTED MEASUREMENT>
1.01

$$$$
>  <RESIDUES>
AGAATAGGGG

>  <READOUT LABEL>
switch fluorescence ratio

>  <REPORTED MEASUREMENT>
0.976

$$$$

###

# Tested on: ATP;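 also: ATP exposure 15 min at 22 °C before imaging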
# METHOD DESCRIPTION: switch fluorescence ratio, 500 uM ATP over buffer (Cy3 cluster intensity, sum of 5 cycles each) (fold (ratio)); higher = stronger signal-on switching upon ATP binding; sequences stand for … in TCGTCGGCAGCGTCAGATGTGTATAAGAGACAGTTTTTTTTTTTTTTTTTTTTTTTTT…TC
# EXPERIMENTAL PARAMETERS: aptamer strand: ATP DNA aptamer (quencher-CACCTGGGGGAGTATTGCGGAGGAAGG + anchor), 100 nM annealed; ATP concentration: 500 uM
// values below are reported switch fluorescence ratio

>  <RESIDUES>
TTATAGGGAC

>  <switch fluorescence ratio>
1

$$$$
>  <RESIDUES>
TTGTGATGGC

>  <switch fluorescence ratio>
1.03

$$$$
>  <RESIDUES>
TTATATACAG

>  <switch fluorescence ratio>
1.06

$$$$
>  <RESIDUES>
ATGCGTGAGG

>  <switch fluorescence ratio>
1.01

$$$$
>  <RESIDUES>
TTTCAGCTGG

>  <switch fluorescence ratio>
0.997

$$$$
>  <RESIDUES>
ACGGGCATTC

>  <switch fluorescence ratio>
1.76

$$$$
>  <RESIDUES>
GTGATCTTTT

>  <switch fluorescence ratio>
1

$$$$
>  <RESIDUES>
AAGGTCGTCA

>  <switch fluorescence ratio>
0.961

$$$$
>  <RESIDUES>
TGGTTTCTTG

>  <switch fluorescence ratio>
0.963

$$$$
>  <RESIDUES>
AGTTGATCCA

>  <switch fluorescence ratio>
0.982

$$$$
>  <RESIDUES>
TTGGGGGCGG

>  <switch fluorescence ratio>
1.01

$$$$
>  <RESIDUES>
TTTATGGTGG

>  <switch fluorescence ratio>
1.01

$$$$
>  <RESIDUES>
CTTTTTGTGG

>  <switch fluorescence ratio>
0.984

$$$$
>  <RESIDUES>
TCGGCCCAGG

>  <switch fluorescence ratio>
3.6

$$$$
>  <RESIDUES>
GCAGTCACAG

>  <switch fluorescence ratio>
1.03

$$$$
>  <RESIDUES>
TTAAAGTCAT

>  <switch fluorescence ratio>
1.01

$$$$
>  <RESIDUES>
AGTCAAAAAA

>  <switch fluorescence ratio>
1.17

$$$$
>  <RESIDUES>
GGGTATGGAG

>  <switch fluorescence ratio>
1.02

$$$$
>  <RESIDUES>
GTTGCTGTGG

>  <switch fluorescence ratio>
0.985

$$$$
>  <RESIDUES>
GATTGATTTT

>  <switch fluorescence ratio>
1.02

$$$$
>  <RESIDUES>
CATATGATCG

>  <switch fluorescence ratio>
0.961

$$$$
>  <RESIDUES>
AGGGGAGTTG

>  <switch fluorescence ratio>
0.995

$$$$
>  <RESIDUES>
GCGGTGCCTG

>  <switch fluorescence ratio>
0.977

$$$$
>  <RESIDUES>
TAAGGTGTTG

>  <switch fluorescence ratio>
1.04

$$$$
>  <RESIDUES>
TTGGATCTTA

>  <switch fluorescence ratio>
0.972

$$$$
>  <RESIDUES>
GGGTATAACG

>  <switch fluorescence ratio>
0.974

$$$$
>  <RESIDUES>
GTCCAAGGGT

>  <switch fluorescence ratio>
1.01

$$$$
>  <RESIDUES>
TGGCAAAGGA

>  <switch fluorescence ratio>
0.989

$$$$
>  <RESIDUES>
ACTCTGTGC

>  <switch fluorescence ratio>
1.21

$$$$
>  <RESIDUES>
GACATTGTTA

>  <switch fluorescence ratio>
1.01

$$$$
>  <RESIDUES>
TAGACAAAAA

>  <switch fluorescence ratio>
1.08

$$$$
>  <RESIDUES>
TATAGGCGCG

>  <switch fluorescence ratio>
1.03

$$$$
>  <RESIDUES>
ATAGGGATTC

>  <switch fluorescence ratio>
1.02

$$$$
>  <RESIDUES>
GACGTTCGGC

>  <switch fluorescence ratio>
0.991

$$$$
>  <RESIDUES>
ATGTGCATAT

>  <switch fluorescence ratio>
1.03

$$$$
>  <RESIDUES>
GAATGTTTGA

>  <switch fluorescence ratio>
0.984

$$$$
>  <RESIDUES>
TAGGAGTGGG

>  <switch fluorescence ratio>
1

$$$$
>  <RESIDUES>
GGGATATCAT

>  <switch fluorescence ratio>
0.99

$$$$
>  <RESIDUES>
AAGCGTAAAA

>  <switch fluorescence ratio>
0.979

$$$$
>  <RESIDUES>
TTTTGTGGAC

>  <switch fluorescence ratio>
0.996

$$$$
>  <RESIDUES>
AGCGAATATT

>  <switch fluorescence ratio>
1.08

$$$$
>  <RESIDUES>
TTTCTCGAAT

>  <switch fluorescence ratio>
1

$$$$
>  <RESIDUES>
GGATGTATAA

>  <switch fluorescence ratio>
1.01

$$$$
>  <RESIDUES>
CTGGTGGTGG

>  <switch fluorescence ratio>
0.986

$$$$
>  <RESIDUES>
GATTGCCGGT

>  <switch fluorescence ratio>
1.01

$$$$
>  <RESIDUES>
TGAAGTGAAC

>  <switch fluorescence ratio>
1.17

$$$$
>  <RESIDUES>
TAAAGGTGTT

>  <switch fluorescence ratio>
1.09

$$$$
>  <RESIDUES>
TTGCCCCTTA

>  <switch fluorescence ratio>
1.03

$$$$
>  <RESIDUES>
TTTATGCTTG

>  <switch fluorescence ratio>
0.974

$$$$
>  <RESIDUES>
TTTTAGTCTT

>  <switch fluorescence ratio>
1.04

$$$$
>  <RESIDUES>
GGGCAGTAGG

>  <switch fluorescence ratio>
1

$$$$
>  <RESIDUES>
AAAAGGGTCG

>  <switch fluorescence ratio>
1.05

$$$$
>  <RESIDUES>
AGTATATCTG

>  <switch fluorescence ratio>
0.974

$$$$
>  <RESIDUES>
AAGTGCGGGC

>  <switch fluorescence ratio>
1.04

$$$$
>  <RESIDUES>
GTTTATTACT

>  <switch fluorescence ratio>
1.01

$$$$
>  <RESIDUES>
CGGGCAGTTT

>  <switch fluorescence ratio>
1.03

$$$$
>  <RESIDUES>
GGCTACCTTG

>  <switch fluorescence ratio>
1.05

$$$$
>  <RESIDUES>
TAAGATGGCT

>  <switch fluorescence ratio>
1.11

$$$$
>  <RESIDUES>
CATTATGCTT

>  <switch fluorescence ratio>
0.986

$$$$
>  <RESIDUES>
TTATTTTTGT

>  <switch fluorescence ratio>
1.01

$$$$
>  <RESIDUES>
TGTTCTAGA

>  <switch fluorescence ratio>
0.987

$$$$
>  <RESIDUES>
ATGTTATAGA

>  <switch fluorescence ratio>
0.986

$$$$
>  <RESIDUES>
GAATGTAGGT

>  <switch fluorescence ratio>
0.993

$$$$
>  <RESIDUES>
CTGGGGGATG

>  <switch fluorescence ratio>
0.986

$$$$
>  <RESIDUES>
TTGGGTGGTA

>  <switch fluorescence ratio>
0.988

$$$$
>  <RESIDUES>
GTTTTGAGGG

>  <switch fluorescence ratio>
1.01

$$$$
>  <RESIDUES>
GTGGATGCAT

>  <switch fluorescence ratio>
1.01

$$$$
>  <RESIDUES>
AAGAGGAAGC

>  <switch fluorescence ratio>
0.984

$$$$
>  <RESIDUES>
TGCTCTGGGG

>  <switch fluorescence ratio>
0.996

$$$$
>  <RESIDUES>
TTGAAGGGGT

>  <switch fluorescence ratio>
1.08

$$$$
>  <RESIDUES>
GCTCTAGTGT

>  <switch fluorescence ratio>
0.996

$$$$
>  <RESIDUES>
GCTTGGCAGT

>  <switch fluorescence ratio>
1.03

$$$$
>  <RESIDUES>
GCCGTAGTGC

>  <switch fluorescence ratio>
1.01

$$$$
>  <RESIDUES>
TAGTGAAGGG

>  <switch fluorescence ratio>
0.997

$$$$
>  <RESIDUES>
GAGGGTCTTT

>  <switch fluorescence ratio>
0.969

$$$$
>  <RESIDUES>
AGTGGGGGTA

>  <switch fluorescence ratio>
0.995

$$$$
>  <RESIDUES>
GTTAGAGGTT

>  <switch fluorescence ratio>
0.999

$$$$
